target: HERG (Homo sapiens)
Sequence (Q12809 whole entry): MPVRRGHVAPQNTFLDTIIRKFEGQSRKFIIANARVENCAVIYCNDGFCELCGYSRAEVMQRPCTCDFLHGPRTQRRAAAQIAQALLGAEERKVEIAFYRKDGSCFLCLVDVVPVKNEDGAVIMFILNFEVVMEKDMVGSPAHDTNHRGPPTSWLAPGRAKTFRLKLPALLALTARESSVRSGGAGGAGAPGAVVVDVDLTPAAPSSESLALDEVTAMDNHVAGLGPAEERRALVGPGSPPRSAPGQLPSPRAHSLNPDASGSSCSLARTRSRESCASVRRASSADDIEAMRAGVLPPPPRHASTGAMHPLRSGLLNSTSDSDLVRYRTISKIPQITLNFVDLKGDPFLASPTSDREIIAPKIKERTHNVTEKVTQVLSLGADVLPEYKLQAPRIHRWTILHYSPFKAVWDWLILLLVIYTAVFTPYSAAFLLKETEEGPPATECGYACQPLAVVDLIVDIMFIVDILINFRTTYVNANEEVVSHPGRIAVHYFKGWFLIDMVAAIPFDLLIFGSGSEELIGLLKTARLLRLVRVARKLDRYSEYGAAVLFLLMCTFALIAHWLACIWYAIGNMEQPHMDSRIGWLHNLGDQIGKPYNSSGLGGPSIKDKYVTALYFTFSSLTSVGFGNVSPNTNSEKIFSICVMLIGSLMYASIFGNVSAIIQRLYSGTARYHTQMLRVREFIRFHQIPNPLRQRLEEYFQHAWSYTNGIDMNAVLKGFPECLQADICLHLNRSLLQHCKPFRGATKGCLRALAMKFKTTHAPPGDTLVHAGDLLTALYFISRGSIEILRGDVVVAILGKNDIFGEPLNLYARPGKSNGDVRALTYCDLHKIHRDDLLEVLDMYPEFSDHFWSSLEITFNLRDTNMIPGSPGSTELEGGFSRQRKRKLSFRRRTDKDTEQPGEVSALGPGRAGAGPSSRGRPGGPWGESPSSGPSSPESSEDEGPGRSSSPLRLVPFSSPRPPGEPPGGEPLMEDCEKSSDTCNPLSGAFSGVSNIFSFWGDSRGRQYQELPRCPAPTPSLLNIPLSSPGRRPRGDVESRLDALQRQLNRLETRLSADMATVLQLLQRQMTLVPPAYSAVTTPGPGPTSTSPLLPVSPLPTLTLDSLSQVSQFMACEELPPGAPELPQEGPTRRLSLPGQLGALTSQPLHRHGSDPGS
pKi: −log10 of the molar value.
testReadout: pKi

Qu. Tell me measured pKi for COc1cc(CCNCc2ccccc2OCCF)c(OC)cc1Br please.
Ans. < 5.00

---

target: β1 (Homo sapiens, UniProt P08588)
Sequence (P08588 whole entry): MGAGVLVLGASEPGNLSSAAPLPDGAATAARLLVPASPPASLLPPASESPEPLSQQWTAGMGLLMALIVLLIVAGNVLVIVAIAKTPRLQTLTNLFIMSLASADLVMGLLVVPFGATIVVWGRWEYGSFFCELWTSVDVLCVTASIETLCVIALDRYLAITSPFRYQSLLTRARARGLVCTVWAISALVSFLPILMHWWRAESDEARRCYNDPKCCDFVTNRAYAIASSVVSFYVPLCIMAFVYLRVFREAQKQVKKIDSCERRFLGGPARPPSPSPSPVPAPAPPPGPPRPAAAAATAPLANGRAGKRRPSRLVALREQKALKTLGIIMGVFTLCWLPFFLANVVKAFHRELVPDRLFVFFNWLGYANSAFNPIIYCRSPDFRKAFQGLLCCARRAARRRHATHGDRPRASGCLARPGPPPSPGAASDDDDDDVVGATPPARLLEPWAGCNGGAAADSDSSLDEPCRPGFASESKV
pKi: −log10 of the molar value.
testReadout: pKi

Qu. Tell me measured pKi for COc1cc(CCNCc2ccccc2OCCF)c(OC)cc1Br please.
Ans. < 5.00

---

target: UniProtKB P21918
Sequence (P21918 whole entry): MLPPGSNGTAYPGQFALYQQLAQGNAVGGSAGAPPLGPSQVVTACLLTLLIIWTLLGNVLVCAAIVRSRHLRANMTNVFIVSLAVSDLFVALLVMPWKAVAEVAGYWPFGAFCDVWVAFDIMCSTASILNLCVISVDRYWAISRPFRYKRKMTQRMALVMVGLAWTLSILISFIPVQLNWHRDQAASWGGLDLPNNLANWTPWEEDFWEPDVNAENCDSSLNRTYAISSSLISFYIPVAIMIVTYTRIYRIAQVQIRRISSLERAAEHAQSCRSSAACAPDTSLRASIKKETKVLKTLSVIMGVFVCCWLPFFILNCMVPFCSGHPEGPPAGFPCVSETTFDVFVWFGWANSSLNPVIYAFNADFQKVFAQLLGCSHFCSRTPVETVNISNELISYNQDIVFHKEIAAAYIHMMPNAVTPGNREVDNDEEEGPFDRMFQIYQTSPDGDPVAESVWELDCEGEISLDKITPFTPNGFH
pKi: −log10 of the molar value.
testReadout: pKi

Qu. Tell me measured pKi for COc1cc(CCNCc2ccccc2OCCF)c(OC)cc1Br please.
Ans. < 5.00
